# Test system: BEAS-2B cells
# assay_name: Release of CXCL9, CXCL10 and CXCL11 from BEAS-2B cells (ELISA), inhibitors added concomitantly with stimulus
# Type: cell-based, human
# assay_conditions: Homo sapiens, 20 h, inhibitor concomitant with IFNγ (10 ng/ml) 20h, read-out: IC50, release of CXCL10
measurement_name: pIC50
In simple prose, pIC50 is minus the logarithm base ten of a concentration in moles per litre.

Provide value of pIC50 for this record tested with BEAS-2B cells: CCc1cc(O)ccc1-c1ccc2c(-c3nc4ccccc4[nH]3)n[nH]c2c1 [PF1367550]
7.78

* * *

# Test system: human primary airway epithelial cells
# assay_name: Release of CXCL9, CXCL10 and CXCL11 from human primary airway epithelial cells (ELISA)
# Type: cell-based
# assay_conditions: Homo sapiens, Epithelial cell, pooled primary cells, pre-treated 1h, IFNγ (10ng/ml) 20h; read-out: IC50, release of CXCL11
measurement_name: IC50 (nM)
Could you give me the number in nM? Just the number is fine.

// IC50 lookup, key: CCc1cc(O)ccc1-c1ccc2c(-c3nc4ccccc4[nH]3)n[nH]c2c1
7

* * *

# System: human primary airway epithelial cells
# assay_name: Release of CXCL9, CXCL10 and CXCL11 from human primary airway epithelial cells (ELISA)
# Assay type: cell-based
# assay_conditions: primary cells from COPD patients, pre-treated 1h, IFNγ +TNFα (10 ng/ml) 20h; read-out: EC50, release of CXCL9
measurement_name: EC50
State the value with its unit after it.

Notebook: pull reported EC50 for human primary airway epithelial cells, entry C[C@@H]1CCN(C(=O)N2CCCC2)C[C@@H]1N(C)c1ncnc2[nH]ccc12 [PF956980]
590 nM

* * *

# Test system: human primary airway epithelial cells
# assay_name: Release of CXCL9, CXCL10 and CXCL11 from human primary airway epithelial cells (ELISA)
# Assay type: cell-based
# assay_conditions: primary cells from smokers, pre-treated 1h, IFNγ (10 ng/ml) 20h; read-out: EC50, release of CXCL9
measurement_name: EC50 (µM)
Dear colleague, please return just the value in µM, with no unit written.

May I ask what EC50 has been recorded for C[C@@H]1CCN(C(=O)N2CCCC2)C[C@@H]1N(C)c1ncnc2[nH]ccc12 [PF956980] ?
0.55

* * *

# Test system: human primary airway epithelial cells
# assay_name: Release of CXCL9, CXCL10 and CXCL11 from human primary airway epithelial cells (ELISA)
# Format: cell-based
# assay_conditions: primary cells from smokers, pre-treated 1h, IFNγ +TNFα (10 ng/ml) 20h; read-out: EC50, release of CXCL10
measurement_name: EC50 (µM)
Report as a plain number; the unit µM is understood.

Give EC50 (human primary airway epithelial cells) of the following compound: C[C@@H]1CCN(C(=O)N2CCCC2)C[C@@H]1N(C)c1ncnc2[nH]ccc12
1.88

* * *

# Test system: human primary airway epithelial cells
# assay_name: Release of CXCL9, CXCL10 and CXCL11 from human primary airway epithelial cells (ELISA)
# Type: cell-based
# assay_conditions: primary cells from COPD patients, pre-treated 1h, IFNγ (10 ng/ml) 20h; read-out: EC50, release of CXCL11
measurement_name: EC50 (nM)
Write the number in nM without appending the unit.

Given C[C@@H]1CCN(C(=O)N2CCCC2)C[C@@H]1N(C)c1ncnc2[nH]ccc12 , state its recorded EC50.
820
